- experimental_target: Man(a1-2)Man(a1-2)Man(a1-3)Man
- experiment_description: glycan array binding signal (z-score within array); higher = stronger binding
- assay_context: glycan notation: IUPAC condensed, linker removed
Many of the other results were omitted from the sample, so the strongest signals are more common in it than they were.
measured_parameter: glycan array binding signal (z-score)
Number, no unit, nothing else.

binder="RBMC1 (Vibrio cholerae) (protein) QQSQRVVTADNLMYLRSGFAIDAIGTTVNNLVGGPVQGTNGGVLRAPIALDQLQSVEVTSGLYNWGGYHIVAIKFTMKDGSSVLLGSTHYASNKKVETYTVPQGKRIKQINVWTGGWLVEGFQFVY" value_measured=-0.395

# context switch: different binder, same glycan array binding signal (z-score)
# lookup: glycan array binding signal (z-score) of LngA (Escherichia coli) (protein) MLSVYNRTQKFKAEARKKIAKYHELRKQRGMSLLEVIIVLGIIGTIAAGVVILAQRAFDSRAVTDLVTNTNTVRVRMKDAYQRDGKYPDFVDPLSLTANTIKTDTSGIPAAQLVQLGKITPDEVRNNISGDFIAIGGALTSNGAQVKKGFAIELNGLSQEQCRSILGQVGNNWEYVAIGTSASGSYAMTATGVDMSVAASTTVLRSLGNNGQTTLTADKILSTCTAQVNSITLGSR
-0.556
